# Tested on: Human alphaherpesvirus 3
# Assay details: Antiviral activity against thymidine kinase-positive Varicella-zoster virus OKA infected in HEL cells assessed as reduction in virus-induced cytopathicity
# Format: functional, cell-based
# Conditions: Human alphaherpesvirus 3, strain Oka vaccine
Assay readout: EC50

### Prompt Using known records, supply EC50 for `Cc1cc(C#CC#Cc2cn([C@H]3C[C@H](O)[C@@H](CO)O3)c(=O)[nH]c2=O)ccc1F`
### Response 14 µM

### Prompt Using known records, supply EC50 for `O=c1[nH]c(=O)n([C@H]2C[C@H](O)[C@@H](CO)O2)cc1C#CC#Cc1ccccn1`
### Response 5.1 µM

### Prompt Using known records, supply EC50 for `O=c1[nH]c(=O)n([C@H]2C[C@H](O)[C@@H](CO)O2)cc1C#CC#CCO`
### Response 2.1 µM

### Prompt Using known records, supply EC50 for `O=c1[nH]c(=O)n([C@H]2C[C@H](O)[C@@H](CO)O2)cc1C#CC#Cc1ccc(OC(F)(F)F)cc1`
### Response 0.9 µM

### Prompt Using known records, supply EC50 for `O=c1[nH]c(=O)n([C@H]2C[C@H](O)[C@@H](CO)O2)cc1C#CC#CCC1CCCC1`
### Response 42 µM

### Prompt Using known records, supply EC50 for `O=c1[nH]c(=O)n([C@H]2C[C@H](O)[C@@H](CO)O2)cc1C#CC#CC1CC1`
### Response > 100 µM

### Prompt Using known records, supply EC50 for `O=c1[nH]c(=O)n([C@H]2C[C@H](O)[C@@H](CO)O2)cc1/C=C/Br`
### Response 0.0087 µM

Attribution: ChEMBL document CHEMBL2034851
